- System: Staphylococcus aureus
- PROCEDURE_TEXT: Antibacterial activity against Staphylococcus aureus Smith OC4172
- Assay type: functional
// reported MIC for each item listed
State the answer as a number, implicitly in µg/mL.

{"columns": ["COMPOUND", "EXPERIMENTAL_SYSTEM", "UNIT_OF_MEASUREMENT", "MIC"],
 "data": [
  ["CC[C@H]1OC(=O)[C@H](C)[C@@H](O[C@H]2C[C@@](C)(OC)[C@@H](O)[C@H](C)O2)[C@H](C)[C@@H](O[C@@H]2O[C@H](C)C[C@H](N(C)C)[C@H]2O)[C@](C)(O)C[C@@H](C)C(=O)[C@H](C)[C@@H](O)[C@]1(C)O [ERYTHROMYCIN]", "Staphylococcus aureus", "µg/mL", 0.5],
  ["CC[C@H]1OC(=O)[C@H](C)C(=O)[C@H](C)[C@@H](O[C@@H]2O[C@H](C)C[C@H](N(C)C)[C@H]2O)[C@](C)(OC(=O)NC/C=C/c2ccc(-c3ccccc3)nc2)C[C@@H](C)C(=O)[C@H](C)[C@H]2CC(=O)O[C@@]21C", "Staphylococcus aureus", "µg/mL", 0.5],
  ["CC[C@H]1OC(=O)[C@H](C)C(=O)[C@H](C)[C@@H](O[C@@H]2O[C@H](C)C[C@H](N(C)C)[C@H]2O)[C@](C)(OC(=O)NC/C=C/c2ccc3cccnc3c2)C[C@@H](C)C(=O)[C@H](C)[C@H]2CC(=O)O[C@@]21C", "Staphylococcus aureus", "µg/mL", 0.25],
  ["CC[C@H]1OC(=O)[C@H](C)C(=O)[C@H](C)[C@@H](O[C@@H]2O[C@H](C)C[C@H](N(C)C)[C@H]2O)[C@](C)(OC(=O)NC/C=C/c2cccc(-c3ncccn3)c2)C[C@@H](C)C(=O)[C@H](C)[C@H]2CC(=O)O[C@@]21C", "Staphylococcus aureus", "µg/mL", 0.5]
]}

Next compound, please.
get_value(item= CC[C@H]1OC(=O)[C@H](C)C(=O)[C@H](C)[C@@H](O[C@@H]2O[C@H](C)C[C@H](N(C)C)[C@H]2O)[C@](C)(OC(=O)NC/C=C/c2ccc3ncccc3c2)C[C@@H](C)C(=O)[C@H](C)[C@H]2CC(=O)O[C@@]21C , readout=MIC) returns 0.5

###

Each record here notes measured MIC.
- System: Staphylococcus aureus
- PROCEDURE_TEXT: Antibacterial activity against Staphylococcus aureus Smith OC4172
- Format: functional
Report only the number, with the unit µg/mL understood.

{"columns": ["CHEMICAL_STRING", "EXPERIMENTAL_SYSTEM", "UNIT_OF_MEASUREMENT", "VALUE_MEASURED"],
 "data": [
  ["CC[C@H]1OC(=O)[C@H](C)C(=O)[C@H](C)[C@@H](O[C@@H]2O[C@H](C)C[C@H](N(C)C)[C@H]2O)[C@](C)(OC(=O)NC/C=C/c2ccc(-c3ccccn3)cc2)C[C@@H](C)C(=O)[C@H](C)[C@H]2CC(=O)O[C@@]21C", "Staphylococcus aureus", "µg/mL", 0.5]
]}

The reported value for CC[C@H]1OC(=O)[C@H](C)C(=O)[C@H](C)[C@@H](O[C@@H]2O[C@H](C)C[C@H](N(C)C)[C@H]2O)[C@](C)(OC(=O)NC/C=C/c2ccc(-c3ncccn3)cc2)C[C@@H](C)C(=O)[C@H](C)[C@H]2CC(=O)O[C@@]21C in terms of MIC is 0.12

compound CC[C@H]1OC(=O)[C@H](C)C(=O)[C@H](C)[C@@H](O[C@@H]2O[C@H](C)C[C@H](N(C)C)[C@H]2O)[C@](C)(OC(=O)NC/C=C/c2ccc3nccnc3c2)C[C@@H](C)C(=O)[C@H](C)[C@H]2CC(=O)O[C@@]21C , MIC observed: 0.5

Sample CC[C@H]1OC(=O)[C@H](C)C(=O)[C@H](C)[C@@H](O[C@@H]2O[C@H](C)C[C@H](N(C)C)[C@H]2O)[C@](C)(OC(=O)NC/C=C/c2ccc(-c3ncccn3)cc2)C[C@@H](C)C(=O)[C@H](C)[C@H]2NC(=O)O[C@@]21C ; MIC observed: 0.12

Input CC[C@H]1OC(=O)[C@H](C)C(=O)[C@H](C)[C@@H](O[C@@H]2O[C@H](C)C[C@H](N(C)C)[C@H]2O)[C@](C)(OC(=O)NCc2ccc3ncccc3c2)C[C@@H](C)C(=O)[C@H](C)[C@H]2CC(=O)O[C@@]21C . Output MIC: 1
